Recorded pIC50, one value per entry.
Tested on: BxPC3
protocol_summary: Cell proliferation assay (Sulforhodamine B), IC50
Format: cell-based
measurement_setup: Homo sapiens, BXPC-3; BxPC3, 96 hours of treatment; read-out: IC50 96 h mean ± SD
pIC50: −log10 of the molar value.

chemical_string | pIC50
CC(C)c1c(C(=O)Nc2ccccc2)c(-c2ccccc2)c(-c2ccc(F)cc2)n1CC[C@@H](O)C[C@@H](O)CC(=O)O | 4.77
Cc1[nH]c2ccccc2c1CCNCc1ccc(/C=C/C(=O)NO)cc1 | 7.61
CCC(C)(C)C(=O)O[C@H]1C[C@@H](C)C=C2C=C[C@H](C)[C@H](CC[C@@H]3C[C@@H](O)CC(=O)O3)[C@H]21 | 4.95
CC[C@H](C)C(=O)O[C@H]1C[C@@H](C)C=C2C=C[C@H](C)[C@H](CC[C@@H]3C[C@@H](O)CC(=O)O3)[C@H]21 | 4.73
CCCC(CCC)C(=O)O | 2.74
Nc1ccccc1NC(=O)c1ccc(CNC(=O)OCc2cccnc2)cc1 | 6.05
